Origin of the recorded values: ChEMBL document CHEMBL3396993

Biological target: Amine oxidase [flavin-containing] B (Homo sapiens, UniProt P27338);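 further: recombinant enzyme, kynuramine substrate converted to 4-hydroxyquinoline, product quantified by spectrofluorometry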
Sequence (P27338 whole entry): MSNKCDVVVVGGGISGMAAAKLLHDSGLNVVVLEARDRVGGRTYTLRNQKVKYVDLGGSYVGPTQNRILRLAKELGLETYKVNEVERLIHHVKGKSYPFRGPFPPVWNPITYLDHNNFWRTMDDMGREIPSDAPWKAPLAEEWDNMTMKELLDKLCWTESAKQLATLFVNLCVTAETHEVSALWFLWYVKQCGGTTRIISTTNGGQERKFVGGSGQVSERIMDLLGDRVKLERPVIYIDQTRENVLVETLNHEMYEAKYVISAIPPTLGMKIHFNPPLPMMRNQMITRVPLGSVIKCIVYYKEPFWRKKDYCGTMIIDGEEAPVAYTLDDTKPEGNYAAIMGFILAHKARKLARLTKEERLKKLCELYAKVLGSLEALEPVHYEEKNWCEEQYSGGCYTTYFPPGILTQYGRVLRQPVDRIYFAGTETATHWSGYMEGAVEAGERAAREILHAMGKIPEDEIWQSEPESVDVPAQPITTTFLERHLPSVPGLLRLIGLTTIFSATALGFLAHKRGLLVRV
pIC50: −log10 of the molar value.

mol | bound-sign | pIC50
N#Cc1ccc(OC/C=C/c2ccccc2)cc1C#N | = | 6.19
COc1ccc(-c2c(Cl)c3cc(C#N)c(C#N)cc3n2C)cc1 | < | 4.00
Cn1c(-c2ccccc2)c(Cl)c2cc(C#N)c(C#N)cc21 | < | 4.00
Cc1ccc(-c2[nH]c3cc(C#N)c(C#N)cc3c2Cl)cc1 | = | 7.77
COc1ccc(-c2c(Br)c3cc(C#N)c(C#N)cc3n2O)cc1 | = | 5.82
Cn1c(-c2cccs2)c(Cl)c2cc(C#N)c(C#N)cc21 | < | 4.00
N#Cc1cc2c(Br)c(-c3ccccc3)n(O)c2cc1C#N | = | 4.92
N#Cc1cc2[nH]c(-c3ccccc3)c(Cl)c2cc1C#N | = | 6.84
Cc1ccc(-c2c(Br)c3cc(C#N)c(C#N)cc3n2O)cc1 | = | 5.54
Cc1ccc(-c2c(Cl)c3cc(C#N)c(C#N)cc3n2C)cc1 | < | 4.00
N#Cc1cc2[nH]c(-c3cccs3)c(Cl)c2cc1C#N | = | 5.90
COc1ccc(-c2[nH]c3cc(C#N)c(C#N)cc3c2Cl)cc1 | = | 7.70
COc1ccc(-c2c(Br)c3cc(C#N)c(C#N)cc3n2OC)cc1 | < | 4.00
